B1: tRNA (parent)
chain: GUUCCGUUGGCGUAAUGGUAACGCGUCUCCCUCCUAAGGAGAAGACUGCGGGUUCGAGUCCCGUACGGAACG

Variants of: B1
Assay: yeast fitness, log relative to wild type (ln ratio); higher = fitter; tRNA-Arg(CCU), competitive growth, 37 C, 1 M NaCl
Threshold check on yeast fitness (ln): at or above -0.2 gives T, strictly below gives F.

Worked set:
Data request: State whether the measured yeast fitness (ln) reaches -0.2, counting equality as reaching it, for G1A G6A C46U C66U A70U C71U
Data returned: T

Data request: Is yeast fitness (ln) for G1A U2C A43C C46U C66U A70G C71U at or above -0.2?
Data returned: T

Data request: Threshold query (yeast fitness (ln) >= -0.2) on U2G G6U A43C C66A A69G A70U C71U
Data returned: F

Data request: Kindly determine if yeast fitness (ln) recorded for U2G G6U C27U A43C C46U C66U A69G is above or exactly -0.2.
Data returned: F

Data request: Could you verify whether the entry G1A U2C C66U A70G shows yeast fitness (ln) of no less than -0.2?
Data returned: F

Data request: Please indicate if the recorded yeast fitness (ln) for G1A U2G C27U A69G A70U C71U meets or exceeds -0.2.
Data returned: F

Data request: Given the entry G1A U2C C27U C46U C66A A70U , answer whether its yeast fitness (ln) meets or surpasses -0.2.
Data returned: T

Data request: Decide: yeast fitness (ln) of G1A G6U A43C C46U C66A C71U >= -0.2?
Data returned: T

Continuing:
Data request: Determine whether measured yeast fitness (ln) meets or exceeds -0.2 for U2G G6A C46U C66A A70U C71U
Data returned: T

Data request: Reported yeast fitness (ln) at or above -0.2? U2G G6U C46U A69G C71U
Data returned: T

Data request: hey, is yeast fitness (ln) for this one >= -0.2? G6A A70U
Data returned: T

Data request: Could you verify whether the entry G1A U2G G6U C27U C46U C66U shows yeast fitness (ln) of no less than -0.2?
Data returned: F

Data request: Determine whether measured yeast fitness (ln) meets or exceeds -0.2 for G1A U2G G6A C46U C66A A70U
Data returned: T

Data request: For this variant, is measured yeast fitness (ln) -0.2 or higher? G1A U2G G6U C27U A43C C66U A69G C71U
Data returned: F

Data request: Quick check, yeast fitness (ln) >= -0.2? U2G G6U C27U A43C C46U C66U A70U
Data returned: F

Data request: Decide: is the reported value of yeast fitness (ln) for U2G G6A C27U A43C C46U A70U C71U equal to or greater than -0.2?
Data returned: T

Data request: Tell me whether yeast fitness (ln) is at least -0.2 here: G1A G6A C27U A43C C46U C66A A70U C71U
Data returned: F

Data request: Say whether G6A C27U A43C C46U C66U A69G A70U C71U shows yeast fitness (ln) of -0.2 or more.
Data returned: F

Data request: Confirm if yeast fitness (ln) reported for the variant G1A G6U C27U C66U C71U is -0.2 or above.
Data returned: F

Data request: Is the recorded value of yeast fitness (ln) equal to or greater than -0.2 for this variant? G1A U2G C46U C66U A70U
Data returned: T

Data request: hey, is yeast fitness (ln) for this one >= -0.2? G1A U2G C27U A43C A70G
Data returned: T

Data request: I'd appreciate it if you could say whether U2C C66A A70U has yeast fitness (ln) at least equal to -0.2.
Data returned: T

Data request: Decide: is the reported value of yeast fitness (ln) for U2C G6A A43C A69G C71U equal to or greater than -0.2?
Data returned: T

Data request: Check this variant for yeast fitness (ln) at or above -0.2: G1A U2G G6A C27U A43C C46U C66U A69G A70U
Data returned: F

Data request: Threshold query (yeast fitness (ln) >= -0.2) on G1A U2C C27U A43C C66U A70U C71U
Data returned: F

Reference source: the RNAGym collection of RNA variant scans (doi:10.1038/s41586-018-0170-7)
